target: Met–Tai (D. melanogaster Met co-expressed with Tai) (Drosophila melanogaster, UniProt Q9VYW2, T103P); construct: full-length Met ORF (codon 103 CCC, Pro); heterodimer; with Taiman; assay: yeast lacZ reporter gene assay (beta-galactosidase, ONPG); type: cell-based
Sequence (Q9VYW2 1-716 T103P): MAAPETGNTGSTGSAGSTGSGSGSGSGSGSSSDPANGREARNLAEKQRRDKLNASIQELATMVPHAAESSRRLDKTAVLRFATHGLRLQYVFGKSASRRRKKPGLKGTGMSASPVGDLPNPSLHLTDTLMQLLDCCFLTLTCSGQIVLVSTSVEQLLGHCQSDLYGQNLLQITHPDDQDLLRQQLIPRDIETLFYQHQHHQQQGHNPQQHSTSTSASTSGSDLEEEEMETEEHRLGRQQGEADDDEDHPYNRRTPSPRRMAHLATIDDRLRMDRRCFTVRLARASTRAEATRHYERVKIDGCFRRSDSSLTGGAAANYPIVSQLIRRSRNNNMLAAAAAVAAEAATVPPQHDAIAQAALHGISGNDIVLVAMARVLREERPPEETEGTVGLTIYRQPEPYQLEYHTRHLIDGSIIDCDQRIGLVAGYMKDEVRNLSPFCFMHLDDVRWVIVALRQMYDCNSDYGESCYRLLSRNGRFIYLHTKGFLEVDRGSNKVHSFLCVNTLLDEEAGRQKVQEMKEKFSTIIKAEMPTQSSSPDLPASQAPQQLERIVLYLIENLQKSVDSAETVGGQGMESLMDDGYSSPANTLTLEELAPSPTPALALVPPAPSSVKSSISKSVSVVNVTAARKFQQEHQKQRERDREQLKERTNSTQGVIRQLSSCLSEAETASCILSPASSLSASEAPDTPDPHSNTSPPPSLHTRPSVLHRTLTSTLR
Sequence (Q9VLD9 1-2026 partner): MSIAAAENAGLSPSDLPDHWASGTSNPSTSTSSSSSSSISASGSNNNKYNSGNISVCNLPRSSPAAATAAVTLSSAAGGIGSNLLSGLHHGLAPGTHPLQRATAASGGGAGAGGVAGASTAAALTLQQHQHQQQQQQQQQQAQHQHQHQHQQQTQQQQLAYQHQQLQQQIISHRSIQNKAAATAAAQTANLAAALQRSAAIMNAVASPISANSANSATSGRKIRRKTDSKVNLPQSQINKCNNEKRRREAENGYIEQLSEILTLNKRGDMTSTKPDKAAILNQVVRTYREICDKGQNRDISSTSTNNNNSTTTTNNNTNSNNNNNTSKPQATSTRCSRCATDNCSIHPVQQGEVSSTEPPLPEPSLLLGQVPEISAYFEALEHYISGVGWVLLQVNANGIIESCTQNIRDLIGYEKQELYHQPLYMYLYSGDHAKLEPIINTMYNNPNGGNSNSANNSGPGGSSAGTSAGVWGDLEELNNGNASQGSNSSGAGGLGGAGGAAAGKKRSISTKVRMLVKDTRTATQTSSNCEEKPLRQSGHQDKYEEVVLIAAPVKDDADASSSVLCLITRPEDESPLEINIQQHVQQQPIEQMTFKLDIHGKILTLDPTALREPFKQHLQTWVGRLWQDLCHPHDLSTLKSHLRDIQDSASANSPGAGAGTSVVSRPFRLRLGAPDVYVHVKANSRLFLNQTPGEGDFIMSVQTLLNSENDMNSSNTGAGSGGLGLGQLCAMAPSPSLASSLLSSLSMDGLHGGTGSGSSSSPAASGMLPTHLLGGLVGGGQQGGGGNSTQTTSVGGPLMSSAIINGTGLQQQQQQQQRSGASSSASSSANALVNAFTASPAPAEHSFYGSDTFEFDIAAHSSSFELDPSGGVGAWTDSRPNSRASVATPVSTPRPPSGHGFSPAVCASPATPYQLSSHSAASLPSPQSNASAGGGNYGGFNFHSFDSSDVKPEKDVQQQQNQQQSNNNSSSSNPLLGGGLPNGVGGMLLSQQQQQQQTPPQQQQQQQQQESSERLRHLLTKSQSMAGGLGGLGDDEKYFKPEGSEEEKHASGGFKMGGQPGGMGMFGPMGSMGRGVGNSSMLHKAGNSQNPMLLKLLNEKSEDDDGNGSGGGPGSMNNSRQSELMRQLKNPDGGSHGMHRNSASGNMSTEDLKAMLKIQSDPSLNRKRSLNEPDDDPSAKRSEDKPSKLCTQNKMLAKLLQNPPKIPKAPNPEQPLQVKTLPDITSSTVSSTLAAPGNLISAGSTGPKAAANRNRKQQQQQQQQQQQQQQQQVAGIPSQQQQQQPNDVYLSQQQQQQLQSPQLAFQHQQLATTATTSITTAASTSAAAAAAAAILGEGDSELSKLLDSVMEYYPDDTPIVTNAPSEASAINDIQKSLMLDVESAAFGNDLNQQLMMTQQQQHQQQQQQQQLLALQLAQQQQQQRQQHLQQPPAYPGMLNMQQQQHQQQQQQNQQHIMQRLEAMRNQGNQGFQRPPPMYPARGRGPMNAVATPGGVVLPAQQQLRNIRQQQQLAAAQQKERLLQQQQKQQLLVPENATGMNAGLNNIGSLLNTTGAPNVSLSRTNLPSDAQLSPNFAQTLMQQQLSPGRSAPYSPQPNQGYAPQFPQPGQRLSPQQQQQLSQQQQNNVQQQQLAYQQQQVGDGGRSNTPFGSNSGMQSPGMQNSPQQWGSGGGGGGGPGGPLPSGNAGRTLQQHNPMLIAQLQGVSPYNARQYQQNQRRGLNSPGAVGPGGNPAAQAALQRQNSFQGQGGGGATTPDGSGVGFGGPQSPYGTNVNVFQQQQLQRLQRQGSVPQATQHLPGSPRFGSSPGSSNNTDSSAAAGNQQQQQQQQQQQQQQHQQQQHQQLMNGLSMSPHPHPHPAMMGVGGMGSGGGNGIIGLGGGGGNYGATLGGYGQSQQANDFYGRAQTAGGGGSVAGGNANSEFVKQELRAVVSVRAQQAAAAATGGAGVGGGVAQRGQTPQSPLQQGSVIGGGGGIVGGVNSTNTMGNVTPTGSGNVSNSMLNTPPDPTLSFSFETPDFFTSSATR
pEC50: −log10 of the molar value.
Give true when the value for pEC50 is at least 7. Give false when it is less.

Use these answered entries as a reference point.
[[record]]
molecule = "CC[C@]1(C)O[C@@H]1CC/C(C)=C/CC/C(C)=C/C(=O)OC"
discrete_label = "true"

[[record]]
molecule = "CCOC(=O)NCCOc1ccc(Oc2ccccc2)cc1"
discrete_label = "true"


For the next question, use this molecule.
Problem: Kindly determine if pEC50 recorded for COC(C)(C)CCCC(C)C/C=C/C(C)=C/C(=O)OC(C)C (centres unmarked) is above or exactly 7.
Solution: false

* * *

Target: Met–Tai (D. melanogaster Met co-expressed with Tai) (Drosophila melanogaster, UniProt Q9VYW2, T103P)
Construct: full-length Met ORF (codon 103 CCC, Pro); heterodimer; with Taiman
Test: yeast lacZ reporter gene assay (beta-galactosidase, ONPG)
Format: cell-based
Description: yeast lacZ reporter gene assay (beta-galactosidase, ONPG) on Met–Tai (D. melanogaster Met co-expressed with Tai)
Parameter: pEC50
Answers are plain numbers, as −log10 of the molar value.

Could I get pEC50 for every one of these entries?
1. CC/C(=C\CC/C(C)=C/C(=O)OC)CC[C@H]1O[C@@]1(C)CC
2. CC/C(=C\C(=O)OC)CC/C=C(\CC)CC[C@H]1O[C@@]1(C)CC
3. CCOC(=O)/C=C(C)/C=C/C[C@@H](C)CCCC(C)C [(S)‐hydroprene]

Solution:
[7.19, 6.67, 6.24]
